# Tested on: erythrocytes
# Assay summary: Hemolytic activity (HD10/HD50)
# Format: cell-based
Square brackets hold non-standard residues; d marks the D form. Peptide text beside a SMILES is read from it. Nspe = C[C@H](NCC(=O)O)c1ccccc1; Nlys = NCCCCNCC(=O)O
Quantity measured: HD50 (hemolytic activity)

Ask | Provide value of HD50 (hemolytic activity) for this record tested with erythrocytes: C[C@@H](c1ccccc1)N(CC(N)=O)C(=O)CN(C(=O)CN(CCCCN)C(=O)CN(C(=O)CN(C(=O)CN(CCCCN)C(=O)[C@@H]1CCCN1C(=O)CN(C(=O)CN(CCCCN)C(=O)CN(C(=O)CN(C(=O)CNCCCCN)[C@@H](C)c1ccccc1)[C@@H](C)c1ccccc1)[C@@H](C)c1ccccc1)[C@@H](C)c1ccccc1)[C@@H](C)c1ccccc1)[C@@H](C)c1ccccc1 [Peptoid 1-Pro6] (H-[Nlys][Nspe][Nspe][Nlys][Nspe]P[Nlys][Nspe][Nspe][Nlys][Nspe][Nspe]-NH2)
Reply | > 200

***
Ask | Provide value of HD50 (hemolytic activity) for this record tested with erythrocytes: C[C@H](NCC(=O)N(CC(=O)N(CCCCN)CC(=O)N(CC(=O)N(CCCCN)CC(=O)N(CC(=O)N(CCCCN)CC(=O)N(CC(=O)N(CC(=O)N(CC(=O)N(CC(=O)N(CCCCN)CC(N)=O)[C@@H](C)c1ccccc1)[C@@H](C)c1ccccc1)[C@@H](C)c1ccccc1)[C@@H](C)c1ccccc1)[C@@H](C)c1ccccc1)[C@@H](C)c1ccccc1)[C@@H](C)c1ccccc1)c1ccccc1 [Peptoid 1scr, H-(Nspe)2-(NLys-Nspe)3-(Nspe)3-NLys-NH2] (H-[Nspe][Nspe][Nlys][Nspe][Nlys][Nspe][Nlys][Nspe][Nspe][Nspe][Nspe][Nlys]-NH2)
Reply | > 200

Ask | Follow-up item: CC(C)[C@H](C)N(CC(N)=O)C(=O)CN(C(=O)CN(CCCCN)C(=O)CN(C(=O)CN(C(=O)CN(CCCCN)C(=O)CN(C(=O)CN(C(=O)CN(CCCCN)C(=O)CN(C(=O)CN(C(=O)CNCCCCN)[C@@H](C)C(C)C)[C@@H](C)C(C)C)[C@@H](C)C(C)C)[C@@H](C)C(C)C)[C@@H](C)C(C)C)[C@@H](C)C(C)C)[C@@H](C)C(C)C
Reply | >200 / >200
